- ASSAY_EXPLANATION: Stat Signaling Pathway (AID 446);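 note: ME-180 cervical cancer cells given 40 pM IL-6 alongside compound; SIE-controlled beta-lactamase reporter measured as 460/530 nm FRET emission ratio; % is set by controls: 0 for no effect and ±100 for the full control effect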
- ASSAY_CONDITIONS: ME-180 (cervical carcinoma) SIE beta-lactamase reporter, IL-6 stimulated, 5 h; at 17.2 µM (top of the series) unless noted
Results filed as inconclusive are left out.
MEASUREMENT_NAME: activity, negative = inhibition (%)
The reply should contain only the number, in %.

Check out these entries, answers already filled in.
>  <COMPOUND>
Oc1ccc2ccccc2c1/C=N/n1cnnc1

>  <MEASUREMENT_NAME>
activity, negative = inhibition

>  <UOM>
%

>  <ASSAY_RESULT>
-0.766

$$$$
>  <COMPOUND>
Cn1c(SCC(=O)N2CCOCC2)nnc1-c1ccc(Cl)cc1Cl

>  <MEASUREMENT_NAME>
activity, negative = inhibition

>  <UOM>
%

>  <ASSAY_RESULT>
5.04

$$$$
>  <COMPOUND>
CCOC(=O)CNS(=O)(=O)c1cc(-c2n[nH]c(=O)c3ccccc23)ccc1C

>  <MEASUREMENT_NAME>
activity, negative = inhibition

>  <UOM>
%

>  <ASSAY_RESULT>
-10.1

$$$$
>  <COMPOUND>
CC1C/C=C/C=C/C=C/C=C/C(O[C@@H]2O[C@H](C)[C@@H](O)[C@H](N)[C@@H]2O)CC2OC(O)(CC(O)CC3OC3/C=C/C(=O)O1)CC(O)C2C(=O)O (stereo not given in full)

>  <MEASUREMENT_NAME>
activity, negative = inhibition

>  <UOM>
%

>  <ASSAY_RESULT>
5.83

$$$$

Turning now to a further record.
What does the record list as activity, negative = inhibition for `COC(=O)CSc1nc(N)nc(C)c1Br` ?
2.44
